Tested on: MS2 coat protein
protocol details: apparent KD of MS2 coat protein; designed switch direction (-1 OFF switch, 1 ON switch): 1; higher = weaker reporter binding
applied conditions: input ligand: microRNA oligo, concentration not stated
Mark 1 for reported apparent KD of MS2 coat protein of 40 nM or greater; mark -1 for anything smaller.

[
  {
    "chain": "UUCAACUGAGGAGGAUAUGCAGAGGAUCACCCUGUAGAAGGCCUCGAAAGGAGGAUAUGCAGAGGAUCACCCUGUAGAAGGCCU [pwkr ssNG DX.19] (Eterna round: R96, puzzle: Same State NG 1)",
    "assigned class": 1
  },
  {
    "chain": "UUAUUAUAUAUAGGAUAUUGAUGUAAUUUAUUUCAAGAAGGAUAUACAUGAGGAUCACCCAUGUUGGAUAGGGUUAGUUUGUUU [JR_SSNG1_Sub079] (Eterna round: R96, puzzle: Same State NG 1)",
    "assigned class": 1
  },
  {
    "chain": "CGACACACGGCAGGAUAUGCUUAGCAAAGCUAAGCAGAAGGGCCUCAUGUCGUGGAAACGUGACAUGAGGAUCACCCAUGUCGC [Omei SS(NG)1 C] (Eterna round: R96, puzzle: Same State NG 1)",
    "assigned class": -1
  },
  {
    "chain": "UGAAUAGUUACAGGAUAUGAGUUGUAAAUUGGGUCAGAAGGGUGGGUGUUUUGCGCGGUGUGUUACAUGAGGAUCACCCAUGUU [SameState NG1 #28] (Eterna round: R96, puzzle: Same State NG 1)",
    "assigned class": 1
  },
  {
    "chain": "UUACAUGAGGAUCACCCAUGUCGCUGGUAAACUUCGAACCCGCAGGAUAUGUAUGCCACUUUACGACAGAAGGGCGGGUGCCUG [Eternabot solution 47] (Eterna round: R96, puzzle: Same State NG 3)",
    "assigned class": 1
  },
  {
    "chain": "GCUCGGCUGAUGGCCCACAUGAGGAUCACCCAUGUGAGUGGGCAGGAUAUCUAGAUUAAGGAUGUAGAGAAGGGCCUGCCGAGC [SameState NG3 #36] (Eterna round: R96, puzzle: Same State NG 3)",
    "assigned class": -1
  },
  {
    "chain": "GCUACCAUUGAAGCCAACAUGAGGAUCACCCAUGUAUGUUGGUAGGAUAUCGAUUGCAAAGCGAUCGAGAAGGGCUAAGGUAGC [Mat - Same State NG 3 - JL Mod - D81] (Eterna round: R96, puzzle: Same State NG 3)",
    "assigned class": 1
  },
  {
    "chain": "CGUCGUUUGAUAGGAUAUCGCUAUACAUGAGGAUCACCCAUGUUUACCACGCUGGUUUUUCAUACCGAGAAGGAUUCUGAUGUU [salish99_SSNG02_r04_016] (Eterna round: R96, puzzle: Same State NG 2)",
    "assigned class": 1
  },
  {
    "chain": "AAUUAAUUAAUACAUGAGGAUCACCCAUGUAAUUAUUAGAUCUAGGAUAUCAGCUCGUUUAGAGCUGAGAAGGAGAUCACAUGU [SSNG3/18-B3] (Eterna round: R96, puzzle: Same State NG 3)",
    "assigned class": -1
  }
]

* * *

Tested on: MS2 coat protein
protocol details: apparent KD of MS2 coat protein; designed switch direction (-1 OFF switch, 1 ON switch): -1; higher = weaker reporter binding
applied conditions: input ligand: FMN 200 uM
Mark condition met for reported apparent KD of MS2 coat protein of 50 nM or greater; mark condition not met for anything smaller.

[
  {
    "chain": "GUUUCGUGAGGAUAUGUGGCUUCGAUCGUGCGAAGAAGGCUACAGAAGGCACAUGAGGAUCACCCAUGUUCGUC [salish99_ex4_r4_227] (Eterna round: R97, puzzle: Exclusion 4)",
    "assigned class": "condition met"
  },
  {
    "chain": "ACAUGUCAUCGAGGAUAUUGUACACAUGAGGAUCACCCAUGUACUCGGUUGCUCUAGCAUGCGUUCGAGAAGGCGAUGUACAUU [Ex NG2 #98] (Eterna round: R96, puzzle: Exclusion NG 2)",
    "assigned class": "condition met"
  },
  {
    "chain": "CUCGGCUAAGGAUAUGCAUAGCGGGCCAAGUCUUCUCAAGUACAUGAGGAUCACCCAUGUAGAAGGUAGUUAAC [EX2 B.29] (Eterna round: R97, puzzle: Exclusion 2)",
    "assigned class": "condition not met"
  },
  {
    "chain": "GCGGACUGGAUCGUGAGAUCCGAGACAUGAGGAUCACCCAUGUAGGAUAUCGAUUGCUUUGCAGUCGAGAAGGGCGUGGUCCGC [JL denovo 16] (Eterna round: R96, puzzle: Exclusion NG 3)",
    "assigned class": "condition met"
  },
  {
    "chain": "CCCACAAGCUUUUUGCUCGACAUGAGGAUCACCCAUGUAAAAUGGGUAAAUUUAAAUUUAAAUUUAUUUAAAUUGGG [-18.1, -41.9 kcal, A 34%] (Eterna round: R97, puzzle: Sensor, turn-off variant 1)",
    "assigned class": "condition met"
  }
]
